# Test system: SF-295 CNS
# assay.text: NCI-60 one-dose screen, 48 h
# assay.setup: 10 µM unless noted
About 83,000 compounds went through this panel and 20% of them were active in at least one assay; those are over-represented in the sample as a whole. Activity calls are given as the source filed them. The calls were made as follows: active = growth percent below 10; inactive = the rest.
Lab note: assign the record to one of active, inactive

Before answering, review these 5 worked examples.
molecule	class.label
CC1CCc2c(sc3nc(SCC(=O)c4cccc(Br)c4)n(-c4ccccc4)c(=O)c23)C1 (centres undefined)	inactive
COc1cc(/C=C/C(=O)c2ccc(S(=O)(=O)NCCNc3nc(N(C)C)nc(N4CCOCC4)n3)cc2)cc(OC)c1OC	active
COC(=O)c1cc(C(=O)CBr)n2c1ccc1c3ccccc3ccc12	inactive
CCOC(=O)/C(F)=C/C1CC1C1CCN(C(=O)OC(C)(C)C)CC1 (centres undefined)	inactive
COc1ccc2c(c1)C(Sc1ccc(Cl)cc1)c1c(nc(N)c(C#N)c1N)O2 (centres undefined)	inactive

Exercise: Per the records of this test, what outcome belongs to COc1ccc(-c2cc(C(=O)OCc3ccc(Br)cc3)nn2-c2ccc(S(C)(=O)=O)cc2)cc1OC ?
Solution: inactive

Exercise: Per the records of this test, what outcome belongs to Cc1ccc(C2CC(c3ccc(NC(=O)Nc4ccccc4)cc3)=NN2c2ccc(S(N)(=O)=O)cc2)cc1 (centres undefined) ?
Solution: active

Exercise: Per the records of this test, what outcome belongs to Cn1cc(-c2cc(N)n3nc(-c4c[nH]c5ccccc45)cc3n2)c2cc(F)ccc21 ?
Solution: active

Exercise: Per the records of this test, what outcome belongs to Nc1cc(-c2c[nH]c3ccc(Br)cc23)nc2cc(-c3c[nH]c4ccccc34)nn12 ?
Solution: active

Exercise: Per the records of this test, what outcome belongs to N#Cc1c(-c2ccc(F)cc2)nc(SCc2ccccc2)nc1N1CCNCC1 ?
Solution: active

Exercise: Per the records of this test, what outcome belongs to COc1ccc2ccccc2c1/C=C1\SC(=Nc2ccc(O)cc2)NC1=O ?
Solution: inactive

Exercise: Per the records of this test, what outcome belongs to CC(C)(C)OC(=O)N1C/C(=C\c2ccc(F)cc2)C(=O)/C(=C/c2ccc(F)cc2)C1 ?
Solution: active

Exercise: Per the records of this test, what outcome belongs to COc1cc(NC(=O)CSc2nnc(-c3ccc(-c4nc5ccc(Cl)cc5[nH]4)cc3)o2)cc(OC)c1OC ?
Solution: inactive

Exercise: Per the records of this test, what outcome belongs to COc1ccc(NC(=O)Cn2c(/C=C/c3cccc(OC)c3)nc3ccccc3c2=O)cc1 ?
Solution: inactive

Exercise: Per the records of this test, what outcome belongs to CCOC(=O)c1ccc(NC(=S)NC(=O)c2cccc(NC(=O)c3ccc(C)cc3)c2)cc1 ?
Solution: inactive

Exercise: Per the records of this test, what outcome belongs to COc1ccc(NC(=O)CSc2nnc(-c3ccc(-c4nc5ccc(Cl)cc5[nH]4)cc3)o2)cc1 ?
Solution: inactive

Exercise: Per the records of this test, what outcome belongs to C#CCCCNCCNc1ccnc2cc(Cl)ccc12 ?
Solution: inactive

Exercise: Per the records of this test, what outcome belongs to COc1ccc(CCC2NCCc3c(Br)c4c(c(OC)c32)OCO4)cc1 (centres undefined) ?
Solution: active

Exercise: Per the records of this test, what outcome belongs to O=C(NNC(=O)c1ccc(OCc2nc3ccc(Cl)cc3[nH]2)cc1)Nc1ccc(Cl)c(C(F)(F)F)c1 ?
Solution: inactive
